Molecular target: T1, human APJ receptor (human, UniProt P35414 1-380)
T1 sequence (looked up): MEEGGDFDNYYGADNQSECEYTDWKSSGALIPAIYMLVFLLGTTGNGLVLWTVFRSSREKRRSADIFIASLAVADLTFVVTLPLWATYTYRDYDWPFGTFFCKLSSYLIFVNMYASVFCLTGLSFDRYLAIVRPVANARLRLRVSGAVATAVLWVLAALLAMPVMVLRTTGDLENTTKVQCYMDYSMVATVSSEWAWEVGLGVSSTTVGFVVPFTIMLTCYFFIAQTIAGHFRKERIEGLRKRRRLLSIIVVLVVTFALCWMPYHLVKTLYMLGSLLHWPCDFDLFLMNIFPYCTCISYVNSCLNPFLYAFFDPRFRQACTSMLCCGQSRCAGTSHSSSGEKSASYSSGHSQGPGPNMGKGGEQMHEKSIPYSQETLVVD
Test: cell-based or functional assay
Starred links: 1 amine or outer side, 2 acyl side, 3 side chain; linkers in the order of their positions; H or OH if unused. Non-standard residues stand in square brackets, D forms with d. *: point of attachment. AC4Abu = α-carboxy-4-aminobutyric acid, O=C(C(CCN[*:1])C(=O)[*:3])[*:2]; Oic = O=C(O)[C@@H]1C[C@@H]2CCCC[C@@H]2N1; Phe(4-Cl) = N[C@@H](Cc1ccc(Cl)cc1)C(=O)O; γGlu = O=C(O)[C@H](CCC(=O)[*:2])N[*:1]; 2Nal = N[C@@H](Cc1ccc2ccccc2c1)C(=O)O; NMeR = CN[C@@H](CCCNC(=N)N)C(=O)O; Tridecanoyl = CCCCCCCCCCCCC(=O)*; hArg = N=C(N)NCCCC[C@H](N)C(=O)O; Cha = N[C@@H](CC1CCCCC1)C(=O)O; αMeL = CC(C)C[C@](C)(N)C(=O)O; αMeP = C[C@@]1(C(=O)O)CCCN1; Nle = CCCC[C@H](N)C(=O)O; AEEA = NCCOCCOCC(=O)O; BLeu = β-leucine; βAla = NCCC(=O)O
Measure name: EC50 Human APJ Receptor (GTPγS assay) (nM)
The reply should be a number in nM, with the unit left off.

Worked cases, answers included:
Data point: Tridecanoyl-[γGlu][AEEA][AEEA]QRP[NMeR]LSHKGP[Nle]P[2Nal]-OH (SMILES CCCCCCCCCCCCC(=O)N[C@@H](CCC(=O)NCCOCCOCC(=O)NCCOCCOCC(=O)N[C@@H](CCC(N)=O)C(=O)N[C@@H](CCCNC(=N)N)C(=O)N1CCC[C@H]1C(=O)N(C)[C@@H](CCCNC(=N)N)C(=O)N[C@@H](CC(C)C)C(=O)N[C@@H](CO)C(=O)N[C@@H](Cc1c[nH]cn1)C(=O)N[C@@H](CCCCN)C(=O)NCC(=O)N1CCC[C@H]1C(=O)N[C@@H](CCCC)C(=O)N1CCC[C@H]1C(=O)N[C@@H](Cc1ccc2ccccc2c1)C(=O)O)C(=O)O) [Apelin polypeptide SEQ ID NO: 470] ; EC50 Human APJ Receptor (GTPγS assay) = 0.0379

So, XXXQRPRLSHKGPXPF ({TDA}[AC4Abu][Aeea][Aeea]QR[aMePro][hArg][aMeLeu]SHKGP[Nle]P[4-Cl-F]{COOH}) [Apelin polypeptide SEQ ID NO: 482] ? Its EC50 Human APJ Receptor (GTPγS assay) was 0.0862

Record summary for Tridecanoyl-[AC4Abu][AEEA][AEEA]QRP[hArg][αMeL]SHKGP[Nle]P[2Nal]-OH (SMILES CCCCCCCCCCCCC(=O)NCCC(C(=O)O)C(=O)NCCOCCOCC(=O)NCCOCCOCC(=O)N[C@@H](CCC(N)=O)C(=O)N[C@@H](CCCNC(=N)N)C(=O)N1CCC[C@H]1C(=O)N[C@@H](CCCCNC(=N)N)C(=O)N[C@@](C)(CC(C)C)C(=O)N[C@@H](CO)C(=O)N[C@@H](Cc1c[nH]cn1)C(=O)N[C@@H](CCCCN)C(=O)NCC(=O)N1CCC[C@H]1C(=O)N[C@@H](CCCC)C(=O)N1CCC[C@H]1C(=O)N[C@@H](Cc1ccc2ccccc2c1)C(=O)O) [Apelin polypeptide SEQ ID NO: 404] : reported EC50 Human APJ Receptor (GTPγS assay) = 0.298

EC50 Human APJ Receptor (GTPγS assay) reported for this binder Tridecanoyl-[γGlu][AEEA][AEEA]QRP[NMeR]LSH[βAla]GP[Nle]P[Phe(4-Cl)]-OH (SMILES CCCCCCCCCCCCC(=O)N[C@@H](CCC(=O)NCCOCCOCC(=O)NCCOCCOCC(=O)N[C@@H](CCC(N)=O)C(=O)N[C@@H](CCCNC(=N)N)C(=O)N1CCC[C@H]1C(=O)N(C)[C@@H](CCCNC(=N)N)C(=O)N[C@@H](CC(C)C)C(=O)N[C@@H](CO)C(=O)N[C@@H](Cc1c[nH]cn1)C(=O)NCCC(=O)NCC(=O)N1CCC[C@H]1C(=O)N[C@@H](CCCC)C(=O)N1CCC[C@H]1C(=O)N[C@@H](Cc1ccc(Cl)cc1)C(=O)O)C(=O)O) [Apelin polypeptide SEQ ID NO: 424] : 4.15

Item: Tridecanoyl-[AC4Abu][AEEA][AEEA]QRP[NMeR][Cha]SHKG[Oic][Nle][Phe(4-Cl)]-OH (SMILES CCCCCCCCCCCCC(=O)NCCC(C(=O)O)C(=O)NCCOCCOCC(=O)NCCOCCOCC(=O)N[C@@H](CCC(N)=O)C(=O)N[C@@H](CCCNC(=N)N)C(=O)N1CCC[C@H]1C(=O)N(C)[C@@H](CCCNC(=N)N)C(=O)N[C@@H](CC1CCCCC1)C(=O)N[C@@H](CO)C(=O)N[C@@H](Cc1c[nH]cn1)C(=O)N[C@@H](CCCCN)C(=O)NCC(=O)N1[C@H](C(=O)N[C@@H](CCCC)C(=O)N[C@@H](Cc2ccc(Cl)cc2)C(=O)O)C[C@@H]2CCCC[C@@H]21) [Apelin polypeptide SEQ ID NO: 409] | EC50 Human APJ Receptor (GTPγS assay): 1

Value of measured EC50 Human APJ Receptor (GTPγS assay) for the entry Tridecanoyl-[γGlu][AEEA][AEEA]QRP[NMeR][Cha]SHKGP[Nle]P[Phe(4-Cl)]-OH (SMILES CCCCCCCCCCCCC(=O)N[C@@H](CCC(=O)NCCOCCOCC(=O)NCCOCCOCC(=O)N[C@@H](CCC(N)=O)C(=O)N[C@@H](CCCNC(=N)N)C(=O)N1CCC[C@H]1C(=O)N(C)[C@@H](CCCNC(=N)N)C(=O)N[C@@H](CC1CCCCC1)C(=O)N[C@@H](CO)C(=O)N[C@@H](Cc1c[nH]cn1)C(=O)N[C@@H](CCCCN)C(=O)NCC(=O)N1CCC[C@H]1C(=O)N[C@@H](CCCC)C(=O)N1CCC[C@H]1C(=O)N[C@@H](Cc1ccc(Cl)cc1)C(=O)O)C(=O)O) [Apelin polypeptide SEQ ID NO: 361] : 0.308

New cases:
# EC50 Human APJ Receptor (GTPγS assay) of Tridecanoyl-[γGlu][AEEA][AEEA][dQ]R[αMeP][hArg][BLeu]SHKG[Oic][Nle][αMeP][Phe(4-Cl)]-OH [Apelin polypeptide SEQ ID NO: 502] = 0.456
